test system: Mycobacterium tuberculosis; experiment: Antitubercular activity against Mycobacterium tuberculosis mc2 6230 assessed as inhibition of bacterial growth incubated for 7 days; format: functional; conditions: mc2 6230, 168 h, time 7 day
Parameter measured: MIC

Record excerpt, results attached:
[
  {
    "Structure": "Cc1cc(Nc2ncc3c(C)c(-c4cccc(Cl)c4)c(=O)n(C45CC6CC(CC(C6)C4)C5)c3n2)ccc1N1CCC(N(C)C)CC1",
    "MIC": "> 512 µM"
  },
  {
    "Structure": "Cc1c(-c2ccccc2Cl)c(=O)n(C23CC4CC(CC(C4)C2)C3)c2nc(N3CC(OC(C)C)C3)ncc12",
    "MIC": "> 512 µM"
  },
  {
    "Structure": "Cc1c(-c2ccccc2Cl)c(=O)n(C23CC4CC(CC(C4)C2)C3)c2nc(N(C)CCO)ncc12",
    "MIC": "> 512 µM"
  }
]

Attention now shifts to the item below.
Let me know recorded MIC for CCCCNc1ncc2c(C)c(-c3ccccc3Cl)c(=O)n(C34CC5CC(CC(C5)C3)C4)c2n1 , thanks.
512 µM

###

tested on: Vero; test: Cytotoxicity against African green monkey Vero cells assessed as reduction in cell viability measured after 72 hrs by CCK8 assay; type: cell-based; details: Chlorocebus sabaeus
Parameter measured: pIC50
FYI, pIC50 means -log10 of a concentration in mol per litre.

[
  {
    "Structure": "Cc1c(-c2ccccc2Cl)c(=O)n(C23CC4CC(CC(C4)C2)C3)c2nc(Nc3ccc(N4CCN(C)CC4)c(OC(C)C)c3)ncc12",
    "pIC50": 5.34
  }
]

Consider the molecule Cc1cc(Nc2ncc3c(C)c(-c4ccccc4Cl)c(=O)n(C45CC6CC(CC(C6)C4)C5)c3n2)ccc1N1CCN(C)CC1 . State its measured pIC50.
5.32

For Cc1cc(Nc2ncc3c(C)c(-c4ccccc4Cl)c(=O)n(C45CC6CC(CC(C6)C4)C5)c3n2)ccc1N1CCC(N(C)C)CC1 , write its pIC50.
5.54

Return the recorded pIC50 value; entry: CCOc1cc(Nc2ncc3c(C)c(-c4ccccc4Cl)c(=O)n(C45CC6CC(CC(C6)C4)C5)c3n2)ccc1N1CCN(C)CC1
5.36

###

test: Binding affinity to Mycobacterium tuberculosis PknB
Parameter measured: pKd
Field pKd (float): negative decimal logarithm of the concentration in molar.

Complete the entry with pKd for COc1cc(Nc2ncc3c(C)c(-c4ccccc4Cl)c(=O)n(C45CC6CC(CC(C6)C4)C5)c3n2)ccc1N1CCN(C)CC1
6.12
